test system: ABCB1 (P-glycoprotein, MDR1); test: MTT cell cytotoxicity assay, ABCB1 overexpressing cells; type: cell-based; details: human, HEK293/ABCB1 cells (P-glycoprotein overexpressing)
propertyName: IC50 at 72 h (µM)

INSERT INTO results (smi, observedresult) VALUES
  ('COc1ccc(CCC(=O)CC(C)=O)cc1', 51.2);

====

system: HEK293/pcDNA3.1 human primary embryonic kidney cells; experiment: MTT cell cytotoxicity assay, HEK293/pcDNA3.1; assay type: cell-based; details: HEK293, 72 h, read-out: IC50 ± SD, HEK 293/pcDNA.3.1
pIC50: −log10 of the molar value.
propertyName: pIC50

INSERT INTO results (compound, observedresult) VALUES
  ('COc1ccc(CCC(=O)CC(C)=O)cc1 [VA-18, 6-(4-methoxyphenyl)hexane-2,4-dione]', 4.30);
